test: antivirals protecting cells from dengue CPE – CPE readout, HTS (AID 540333); details: Dengue virus CPE inhibition in host cells, at 20 µM
In all, about 10,000 compounds went through this assay and about 320 (3.2%) were called active. No stated cut-off is given here; in the data, active means CPE inhibition mostly above about 9.1% (no sharp cut-off); inactive means mostly below about 7.2%. The entries come from a sample that favours actives as a whole.
Classes used: true for active, false for inactive

                                    compound  class_assignment
 0   CCCCNC(=O)c1onc(CSc2cccc(OC)c2)c1C(=O)O             false
 1  COc1ccc(S(=O)(=O)N2CCOCC2)cc1NC(=O)c1cc2c(s1)CCCC2             false
 2  Cc1ccc(S(=O)(=O)NCCC(c2ccccc2)c2ccco2)cc1 (stereo not given)             false
 3  O=C1c2ccccc2C(=O)N1CN(C(=O)COc1ccc(Cl)cc1Cl)c1cccc(F)c1             false
 4  COc1ccc(-c2c(-c3cc(OC)cc(OC)c3)n(C)c3ccc(-c4ccc(N(C)C)nc4)cc23)cc1             false
 5  CN(CC(=O)Nc1ccc(Cl)cc1)c1ccc(S(=O)(=O)N2CCCCC2)cc1[N+](=O)[O-]              true
 6   CCCCNC(=O)c1onc(CSc2ccccn2)c1C(=O)NCCCC             false
 7  COC(=O)Cn1c(C(=O)N2CCCC2)cc2c1C[C@H]1CN(C(=O)c3ccccc3)[C@@](Cc3ccc(F)cc3)(C(=O)OC)[C@@H]21             false
 8  Cc1cc(C)cc(-n2c(C)cc(/C=C3\C(=N)N4N=C(CC(C)C)SC4=NC3=O)c2C)c1              true
 9  CCOC(=O)CN1C(=O)N[C@@H](c2ccccc2)[C@@H](C(=O)OC)[C@H]1C             false
10  COC(=O)CN1C(c2cccc(Cl)c2)=Nc2ccc(Cl)cc2C1c1ccccc1 (stereo not given)              true
11  C=CC[C@]12CCc3sccc3C1N(c1ccc(C(=O)OCC)cc1)C2=O (stereo not given in full)              true
12  O=C(CNC(=O)c1ccc2ccccc2c1)OCC(=O)N1CCN(S(=O)(=O)c2ccc3ccccc3c2)CC1             false
13  Cc1ccc(S(=O)(=O)Nc2ccc(NC(=O)Nc3ccc(F)cc3F)cc2)cc1             false
14  COc1ccc(NC(=O)c2cc3c(s2)CCC(C)C3)cc1S(=O)(=O)N1CCOCC1 (stereo not given)              true
15  COCCNC(=O)c1onc(CSc2ccc(F)c(F)c2)c1C(=O)NCCOC             false
16  COC(=O)[C@@]1(Cc2ccc(F)cc2)[C@H]2c3cc(C(=O)N(C)C)n(CCc4ccc(OC)c(Br)c4)c3C[C@H]2CN1C(=O)c1ccccc1              true
17  Cc1ccc(C2=[N+]([O-])C(C)(C)N(O)C2(C)C)cc1             false
18   Cc1ccc(NS(=O)(=O)c2ccc(C3CCCCC3)cc2)cc1              true
19  Cc1ccc(NC(=O)c2ccc(OC(F)F)cc2)cc1S(=O)(=O)N(C)C             false
